Molecular target: PI3K β (Homo sapiens, UniProt P42338)
Construct: Full length p110 subunits of PI3K α, β and δ, N-terminally labeled with polyHis tag; polyHis (N)
Sequence (P42338 whole entry, one chain of several): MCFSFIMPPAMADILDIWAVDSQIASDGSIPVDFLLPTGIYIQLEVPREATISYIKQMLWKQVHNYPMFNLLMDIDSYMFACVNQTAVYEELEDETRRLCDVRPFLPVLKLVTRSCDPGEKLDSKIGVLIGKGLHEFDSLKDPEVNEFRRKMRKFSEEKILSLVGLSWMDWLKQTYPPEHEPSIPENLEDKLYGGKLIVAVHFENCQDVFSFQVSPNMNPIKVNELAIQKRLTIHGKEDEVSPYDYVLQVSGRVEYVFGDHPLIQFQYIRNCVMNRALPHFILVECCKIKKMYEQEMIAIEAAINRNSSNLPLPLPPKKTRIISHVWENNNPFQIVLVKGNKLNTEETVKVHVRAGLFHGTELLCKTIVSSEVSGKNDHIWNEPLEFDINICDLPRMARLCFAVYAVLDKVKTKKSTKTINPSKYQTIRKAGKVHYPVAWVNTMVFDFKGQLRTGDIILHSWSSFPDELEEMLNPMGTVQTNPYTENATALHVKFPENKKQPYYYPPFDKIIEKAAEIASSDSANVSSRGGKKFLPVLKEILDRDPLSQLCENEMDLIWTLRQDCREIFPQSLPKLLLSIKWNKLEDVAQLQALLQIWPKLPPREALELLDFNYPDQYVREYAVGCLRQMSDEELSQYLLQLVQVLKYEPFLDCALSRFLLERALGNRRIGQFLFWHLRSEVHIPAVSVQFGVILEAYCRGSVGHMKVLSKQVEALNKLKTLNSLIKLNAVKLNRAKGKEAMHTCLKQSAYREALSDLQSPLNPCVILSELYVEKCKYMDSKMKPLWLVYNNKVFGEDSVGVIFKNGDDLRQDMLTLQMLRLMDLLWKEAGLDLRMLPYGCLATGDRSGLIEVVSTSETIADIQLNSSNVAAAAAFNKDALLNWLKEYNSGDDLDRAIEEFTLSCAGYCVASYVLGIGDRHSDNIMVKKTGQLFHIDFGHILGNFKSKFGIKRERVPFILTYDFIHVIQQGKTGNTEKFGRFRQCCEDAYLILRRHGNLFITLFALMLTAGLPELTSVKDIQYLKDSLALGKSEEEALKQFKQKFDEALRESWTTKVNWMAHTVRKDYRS
Assay: In vitro PI3 kinase enzyme assay (beta), ATP loss, bioluminescence
Conditions: read-out: PI3Kβ ATP loss IC50
assay metric: IC50 (µM)

a. Cc1ccc(S(=O)(=O)Nc2nnc(-c3ccc4nc(NC(=O)OC(C)(C)C)sc4c3)o2)cc1 [Example 166]
b. CC(=O)Nc1nc2ccc(-c3cncc(S(=O)(=O)c4ccccc4F)n3)cc2s1 [Example 121]
c. Nc1nc2ccc(-c3nnc(NS(=O)(=O)c4ccc(F)cc4)o3)cc2s1 [Example 168]
d. CC(=O)Nc1nc2ccc(-c3ccnc(NCc4ccccc4)n3)cc2s1 [Example 49]
Challenge: In a descending ranking, list each entry from above by its IC50, from the largest value down to the smallest. Please list the labels in the order you were asked to rank them.
Response given: a, d, c, b

====

Target: PI3K β (Homo sapiens, UniProt P42338)
Construct: Full length p110 subunits of PI3K α, β and δ, N-terminally labeled with polyHis tag; polyHis (N)
Test: In vitro PI3 kinase enzyme assay (beta), ATP loss, bioluminescence
Conditions: read-out: PI3Kβ ATP loss IC50
assay metric: IC50 (nM)

{"smiles text": "Oc1cc(-c2ccc3ncsc3c2)cnc1Cl", "IC50 (nM)": 1350}
{"smiles text": "COc1ccc(S(=O)(=O)Nc2nccc(-c3ccc4nc(NC(C)=O)sc4c3)n2)cc1OC", "IC50 (nM)": 7190}
{"smiles text": "CC(=O)Nc1nc2ccc(-c3ccnc(OCC4CCN(C)CC4)n3)cc2s1", "IC50 (nM)": 26700}
{"smiles text": "CC(=O)Nc1nc2ccc(-c3ccnc(Sc4ccc(Cl)cc4)n3)cc2s1", "IC50 (nM)": 2880}
{"smiles text": "Nc1nc2ccc(-c3cccc(NS(=O)(=O)c4ccccc4)n3)cc2s1", "IC50 (nM)": 1440}
{"smiles text": "CC(=O)Nc1nc2ccc(-c3ccnc(CCc4ccccc4)n3)cc2s1", "IC50 (nM)": 6470}
{"smiles text": "CC(=O)Nc1nc2ccc(-c3ccnc(N(C)S(=O)(=O)c4cn(C)cn4)n3)cc2s1", "IC50 (nM)": 3930}
{"smiles text": "CC(=O)Nc1nc2ccc(-c3cncc(N(C)S(=O)(=O)c4ccc(Cl)cc4)c3)cc2s1", "IC50 (nM)": 3330}
{"smiles text": "CC(=O)Nc1nc2ccc(-c3cnc(Cl)c(NS(=O)(=O)c4ccc(O)cc4)c3)cc2s1", "IC50 (nM)": 12.3}
{"smiles text": "CC(C)Nc1cc(-c2ccc3nc(NC(=O)Cc4ccccn4)sc3c2)cnc1Cl", "IC50 (nM)": 846}

a. CC(=O)Nc1nc2ccc(-c3ccnc(Sc4cc(C)ccc4C)n3)cc2s1
b. CC(=O)Nc1nc2ccc(-c3cnc(Cl)c(NS(=O)(=O)c4cccc(C(F)(F)F)c4)c3)cc2s1
c. CC(=O)Nc1nc2ccc(-c3cncc(N(C)S(=O)(=O)c4ccc(C)cc4)n3)cc2s1
Challenge: Please list the entries, largest IC50 first. Provide the labels, sequenced as the question asks.
Response given: a, c, b

A. CC(=O)Nc1nc2ccc(-c3cncc(NS(=O)(=O)c4ccc(Cl)c(Cl)c4)c3)cc2s1
B. CC(=O)Nc1nc2ccc(-c3cnc(Cl)c(NS(=O)(=O)c4cccs4)c3)cc2s1
Challenge: Identify the entry with the larger IC50. Options: A and B Choose, then provide that item's label.
Response given: B
(B: 14.3 nM, A: 9.8 nM)

a. COCC(=O)Nc1nc2ccc(-c3cnc(Cl)c(N(C)C)c3)cc2s1
b. CC(=O)Nc1nc2ccc(-c3ccnc(NS(=O)(=O)c4ccc(F)cc4)n3)cc2s1
Challenge: Between these two entries, a and b , state which has the higher IC50. # reply format: chosen label
Response given: a

1. CC(=O)Nc1nc2ccc(-c3ccnc(N(C)S(=O)(=O)c4ccccc4F)n3)cc2s1
2. Nc1nc2ccc(-c3cccc(NS(=O)(=O)c4ccccc4F)n3)cc2s1
3. CC(=O)Oc1cc(-c2ccc3ncsc3c2)cnc1Cl
Challenge: Reorder the items by IC50, least to greatest. # the answer lists labels in the order requested
Response given: 3, 1, 2
(3: 113 nM, 1: 310 nM, 2: 1600 nM)

P. CC(=O)Nc1nc2ccc(-c3ccnc(OCc4ccc(C)cc4)n3)cc2s1
Q. CC(=O)Nc1nc2ccc(-c3ccnc(OCCCc4ccncc4)n3)cc2s1
Challenge: Of P and Q , whose reported IC50 is the larger number? Field: selected label. Fill in the label of the entry you choose.
Response given: Q

====

Molecular target: PI3K β (Homo sapiens, UniProt P42338)
Construct: Full length p110 subunits of PI3K α, β and δ, N-terminally labeled with polyHis tag; polyHis (N)
Experiment: In vitro PI3 kinase enzyme assay (beta), ATP loss, bioluminescence;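 also: purified p110β/p85 heterodimer with PtdIns(4,5)P2 as acceptor, incubated at room temperature, leftover ATP read by luminescence, inhibition scaled to compound-free wells with and without enzyme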
Settings: read-out: PI3Kβ ATP loss IC50
assay metric: IC50 (nM)

Example cases with answers are listed next.
{"compound": "CC(=O)Nc1nc2ccc(-c3cncc(N(C)S(=O)(=O)c4ccc(F)cc4)c3)cc2s1 [Example 219]", "experimental target": "PI3K β (Homo sapiens, UniProt P42338)", "assay metric": "IC50", "test value": 2930}
{"compound": "COc1ccc(Sc2cncc(-c3ccc4nc(NC(C)=O)sc4c3)n2)cc1 [Example 133]", "experimental target": "PI3K β (Homo sapiens, UniProt P42338)", "assay metric": "IC50", "test value": 75.4}
{"compound": "CC(=O)Nc1nc2ccc(-c3csc(S(=O)(=O)c4ccc(F)cc4)n3)cc2s1 [Example 97]", "experimental target": "PI3K β (Homo sapiens, UniProt P42338)", "assay metric": "IC50", "test value": 28000}
{"compound": "CC(=O)Nc1nc2ccc(-c3ccnc(OCCCc4ccccc4)n3)cc2s1 [Example 4]", "experimental target": "PI3K β (Homo sapiens, UniProt P42338)", "assay metric": "IC50", "test value": 386}
{"compound": "CN(C)c1cc(-c2ccc3nc(N)sc3c2)cnc1Cl [Example 274]", "experimental target": "PI3K β (Homo sapiens, UniProt P42338)", "assay metric": "IC50", "test value": 613}

a. COc1cccc(Sc2nccc(-c3ccc4nc(NC(C)=O)sc4c3)n2)c1 [Example 41]
b. CC(C)(C)OC(=O)Nc1nc2ccc(-c3nnc(NS(=O)(=O)c4ccc(F)cc4)o3)cc2s1 [Example 167]
c. CC(=O)Nc1nc2ccc(-c3ccnc(Sc4c(C)cccc4C)n3)cc2s1 [Example 129]
d. CC(=O)Nc1nc2ccc(-c3ccnc(N(C)S(=O)(=O)c4cccc5ccccc45)n3)cc2s1 [Example 207]
Challenge: Ordering criterion: IC50; begin with the maximum. Dear reader, please state the labels in the requested order.
Response given: b, c, d, a

I. CC(=O)Nc1nc2ccc(-c3cccc(NS(=O)(=O)c4ccccc4F)n3)cc2s1 [Example 73]
II. CC(=O)Nc1nc2ccc(-c3ccnc(N(C)S(=O)(=O)c4ccc(C(C)(C)C)cc4)n3)cc2s1 [Example 205]
Challenge: // task: argmin of IC50 over [ I , II ] Answer format: the label of the selected item.
Response given: II

I. CC(=O)Nc1nc2ccc(-c3ccnc(N4CCOCC4)n3)cc2s1 [Example 160]
II. CC(=O)Nc1nc2ccc(-c3ccnc(NS(=O)(=O)c4ccc(C)cc4)n3)cc2s1 [Example 83]
III. COc1ccc(Sc2ncc(-c3ccc4nc(NC(C)=O)sc4c3)s2)cc1 [Example 62]
IV. COc1ncc(-c2ccc3nc(NC(C)=O)sc3c2)cc1N(C)C [Example 124]
Challenge: Order the records so the highest IC50 appears first and the lowest last. List each label, following the requested order.
Response given: I, III, IV, II

P. COc1ccc(-c2cccc3nc(NC(C)=O)sc23)cc1F [Example 94]
Q. CC(=O)Nc1nc2ccc(-c3cnc(C#N)c(N)c3)cc2s1 [Example 268]
Challenge: Smaller IC50 value, P vs Q ? Reply with the label of the item you choose.
Response given: Q

====

Target: PI3K α (Homo sapiens)
Construct: Full length p110 subunits of PI3K α, β and δ, N-terminally labeled with polyHis tag; polyHis (N)
Sequence (P42336 whole entry, species assumed): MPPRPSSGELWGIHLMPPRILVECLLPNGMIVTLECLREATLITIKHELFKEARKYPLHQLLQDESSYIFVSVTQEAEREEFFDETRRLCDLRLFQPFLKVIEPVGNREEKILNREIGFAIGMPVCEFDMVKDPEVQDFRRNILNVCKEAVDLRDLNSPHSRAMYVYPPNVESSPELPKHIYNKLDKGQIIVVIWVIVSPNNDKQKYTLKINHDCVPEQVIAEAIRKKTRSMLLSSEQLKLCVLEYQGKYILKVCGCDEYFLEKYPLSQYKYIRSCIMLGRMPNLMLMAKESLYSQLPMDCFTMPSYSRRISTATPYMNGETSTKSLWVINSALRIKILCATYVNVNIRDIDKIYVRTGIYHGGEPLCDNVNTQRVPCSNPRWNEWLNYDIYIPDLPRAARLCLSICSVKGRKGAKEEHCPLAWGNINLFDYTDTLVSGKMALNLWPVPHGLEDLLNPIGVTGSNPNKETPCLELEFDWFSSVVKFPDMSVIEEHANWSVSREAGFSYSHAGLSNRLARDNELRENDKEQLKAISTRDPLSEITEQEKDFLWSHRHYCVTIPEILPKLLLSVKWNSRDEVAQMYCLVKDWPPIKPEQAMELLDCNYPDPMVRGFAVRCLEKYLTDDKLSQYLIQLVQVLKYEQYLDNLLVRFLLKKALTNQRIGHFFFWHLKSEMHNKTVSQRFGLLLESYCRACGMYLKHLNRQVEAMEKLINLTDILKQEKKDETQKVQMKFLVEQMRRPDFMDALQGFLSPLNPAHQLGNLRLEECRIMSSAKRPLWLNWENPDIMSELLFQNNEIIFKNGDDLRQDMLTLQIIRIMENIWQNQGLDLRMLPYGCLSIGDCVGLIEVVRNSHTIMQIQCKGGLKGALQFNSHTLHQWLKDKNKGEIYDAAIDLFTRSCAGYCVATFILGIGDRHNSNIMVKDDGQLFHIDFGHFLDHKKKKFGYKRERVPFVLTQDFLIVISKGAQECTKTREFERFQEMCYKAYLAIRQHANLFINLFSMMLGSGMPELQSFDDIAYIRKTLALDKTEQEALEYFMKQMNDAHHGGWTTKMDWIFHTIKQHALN
Sequence (P27986 whole entry partner, species assumed): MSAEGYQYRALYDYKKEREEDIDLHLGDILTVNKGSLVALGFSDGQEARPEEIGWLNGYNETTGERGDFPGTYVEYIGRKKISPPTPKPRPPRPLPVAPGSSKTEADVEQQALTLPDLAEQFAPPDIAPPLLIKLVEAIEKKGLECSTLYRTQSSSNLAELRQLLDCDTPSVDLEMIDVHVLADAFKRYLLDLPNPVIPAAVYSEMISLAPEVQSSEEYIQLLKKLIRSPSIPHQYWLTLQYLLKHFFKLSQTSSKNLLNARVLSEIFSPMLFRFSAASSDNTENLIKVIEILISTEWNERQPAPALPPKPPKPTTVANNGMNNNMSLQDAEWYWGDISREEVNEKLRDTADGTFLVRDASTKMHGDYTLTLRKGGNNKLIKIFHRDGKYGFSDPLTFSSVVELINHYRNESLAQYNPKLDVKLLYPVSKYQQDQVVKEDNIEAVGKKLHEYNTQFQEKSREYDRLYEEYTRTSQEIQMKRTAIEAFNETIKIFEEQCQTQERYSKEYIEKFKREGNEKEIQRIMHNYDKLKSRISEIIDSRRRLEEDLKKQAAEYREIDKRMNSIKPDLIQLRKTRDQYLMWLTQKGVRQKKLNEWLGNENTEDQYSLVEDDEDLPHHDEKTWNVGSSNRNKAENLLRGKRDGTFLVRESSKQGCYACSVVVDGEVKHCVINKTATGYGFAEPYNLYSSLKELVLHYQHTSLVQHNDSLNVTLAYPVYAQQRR
Experiment: In vitro PI3 kinase enzyme assay (alpha), ATP loss, bioluminescence
Details: read-out: PI3Kα ATP loss IC50
pIC50: −log10 of the molar value.
assay metric: pIC50

# example entries with known answers
{"compound": "CC(=O)Nc1nc2ccc(-c3cccc(NS(=O)(=O)c4ccc(C)cc4)c3)nc2s1 [Example 136]", "pIC50": 7.23}
{"compound": "CC(=O)Nc1nc2ccc(-c3cncc(OCCN4CCCC4=O)c3)cc2s1 [Example 229]", "pIC50": 5.97}

1. CC(=O)Nc1nc2ccc(-c3cccc(N(C)S(=O)(=O)c4ccccc4)n3)cc2s1 [Example 75]
2. CC(=O)Nc1nc2ccc(-c3ccnc(OC(C)C)n3)cc2s1 [Example 6]
3. COc1ccc(OC)c(Sc2nccc(-c3ccc4nc(NC(C)=O)sc4c3)n2)c1 [Example 158]
Challenge: Please produce an ascending ranking of these compounds based on pIC50. Write the labels in rank order as requested.
Response given: 3, 2, 1
(3: 6.08, 2: 6.62, 1: 7.08)

a. CC(=O)Nc1nc2ccc(-c3ccnc(NS(=O)(=O)c4cccnc4)n3)cc2s1 [Example 79]
b. CC(=O)Nc1nc2ccc(-c3cncc(N(C)S(=O)(=O)c4ccc(F)cc4)c3)cc2s1 [Example 219]
c. CC(=O)Nc1nc2ccc(-c3cccc(N(C)S(=O)(=O)c4ccccc4F)n3)cc2s1 [Example 226]
Challenge: Sequence the entries by pIC50, beginning with the highest number. Lab note: final answer is the ordered label list.
Response given: a, c, b
